- Test system: SF-268 CNS
- Method Summary: NCI-60 one-dose screen, 48 h (100 = growth as untreated, 0 = no growth, -100 = all killed)
- Condition Notes: 10 µM unless noted
The panel holds about 83,000 compounds, 20% with a hit somewhere; the sample as a whole holds those more often.
Quick reference for growth among some compounds
Write the value in % as a bare number.

Example entries begin here.
| Compound | growth (%) |
| --- | --- |
| COC(=O)CCCNS(=O)(=O)c1cc(C(=O)Nc2ccc(NC(=O)c3cc(S(=O)(=O)NCCCC(=O)OC)c(O)c(O)c3O)cc2)c(O)c(O)c1O | 91.9 |
| CN[C@@H](CCCNC(N)=NC/C=C(/C)CCC=C(C)C)C(=O)N(C)[C@@H](CCCNC(N)=NCC=C(C)C)C(=O)N[C@H](C)[C@H](OS(=O)(=O)O)c1ccc(OS(=O)(=O)O)c(COS(=O)(=O)O)c1 | 101 |
| CN(C)C(=O)Nc1nc2cc(Cl)c(Cl)cc2[nH]1 | 36.5 |
| COc1ccc(Cl)cc1NC(=O)c1cc2c([nH]1)-c1nc(NC(=O)C(C)C)sc1CC2 | 94.9 |
| COc1cccc(C2CC(c3cc(OC)c(OC)c(OC)c3)=NN2)c1 (stereo not drawn) | 93 |

Readout growth for COc1ccc2c(c1)C(=O)/C(=C/c1cccc(OCC(=O)c3ccccc3)c1)O2 , test system SF-268 CNS, was 36.2

Summary line: C[C@@H]1CC2C3C[C@H](F)C4=CC(=O)C=C[C@]4(C)[C@@]3(F)[C@@H](O)C[C@]2(C)[C@@]1(O)C(=O)CO (stereo partly drawn) , SF-268 CNS, reported growth = 88.8

* * *

Measured growth, listed per entry.
- Tested on: ACHN renal
- Method Summary: NCI-60 one-dose screen, 48 h (100 = growth as untreated, 0 = no growth, -100 = all killed)
- Condition Notes: 10 µM unless noted
This is part of a sample that, as a whole, favours compounds with a hit. Of some 83,000 tested, about 20% had one in any assay.
Return type: number; implicit unit %.

Lab note: CCN(CC)CCN1C(=O)c2c(c3c4ccccc4[nH]c3c3[nH]c4ccccc4c23)C1=O gave growth of 62

Briefly, growth measured for COC(=O)c1ccc2c(c1)Oc1ccc(Cl)cc1-c1cc(C)nn1-2 : 22.6

So, CC(C)CCC[C@@H](C)[C@H]1CC[C@H]2[C@@H]3CC=C4N(c5ccccc5)C(=O)CC[C@]4(C)[C@H]3CC[C@]12C ? Its growth was 105

What the record says about COc1ccc(-c2nn(-c3ccc(NC(=O)c4cc(C(F)(F)F)cc(C(F)(F)F)c4)cc3)cc2-c2ccncc2)cc1Cl : growth is 61.9

* * *

- Test system: M14 melanoma
- Method Summary: NCI-60 one-dose screen, 48 h
- Condition Notes: 10 µM unless noted
Compounds without any hit were thinned out: in the full panel of roughly 83,000, 20% have a hit. Active and inactive are the calls of the source. Rule for the calls: active = growth percent below 10; inactive = the rest.
Valid outcomes are listed here; reply with one: YES = active, NO = inactive

| Compound | Class Assignment |
| --- | --- |
| CCN(CC)C(=O)C1CCN(C(=O)c2ccccc2)CC1 | NO |

What did this assay record as the result for FC(F)(F)c1cn(CC2CNC2)c2ncnc(Cl)c12 ?
NO

* * *

- Test system: SW-620 colon
- Method Summary: NCI-60 one-dose screen, 48 h (100 = growth as untreated, 0 = no growth, -100 = all killed)
- Condition Notes: 10 µM unless noted
The panel holds about 83,000 compounds, 20% with a hit somewhere; the sample as a whole holds those more often.
Threshold 40%. growth below it: yes (1). growth at it or above: no (0).

These recorded examples may help you get a feel for the data.
| Chem Smiles | Class Assignment |
| --- | --- |
| COc1ccc(-c2c(NC(=O)Nc3ccc(Cl)c(C(F)(F)F)c3)cnn2-c2ccc(S(N)(=O)=O)cc2)cc1 | yes (1) |
| Nc1nccc2c1ccn2-c1ccc(NC(=O)c2ccc(N3CCOCC3)c(C(F)(F)F)c2)cc1 | yes (1) |
| COc1ccc(-c2cc3ccc(N(C)C)cc3nc2N)c(F)c1 | no (0) |

Lab log: compare recorded growth with 40%; is it strictly lower for O[C@@H]1CCO[C@H](c2ccc3ccccc3c2)C1 ?
no (0)

Please state whether growth is below 40% for Clc1ccc2c(NCCNc3nc(Cl)nc4ccccc34)ccnc2c1
yes (1)

Quick check: does Nc1n[nH]c2cccc(C#Cc3cccc(NC(=O)c4cccc(C(F)(F)F)c4)c3)c12 have growth under 40%?
no (0)

Quick check: does COc1cc2ncn3c(=O)c4c5c(sc4nc3c2cc1OC)CCCCC5 have growth under 40%?
no (0)

Identify whether the compound Cc1ccc2c(c1)Nc1ccc(C)cc1C2(C)C records growth below 40%.
no (0)

Please let me know if CC/C(=C(\CC)c1ccc(OCCN(CC)CC)cc1)c1ccc(OCCN(CC)CC)cc1 shows growth below 40%.
yes (1)

Hello, I'm reviewing records and need to know if growth of c1ccc([Se]CCCN2CCN(CCC[Se]c3ccccc3)CC2)cc1 is below 40%. Could you check?
no (0)
